Measured values drawn from ChEMBL document CHEMBL1154185 for this set.

- measurement.description: Toxicity in iv dosed mouse administered once daily for 5 consecutive days measured after 28 days
- Type: organism-based
- condition.summary: in vivo
metric.name: MTD at 672 h

# get_value(readout='MTD at 672 h', item= "O[C@H]1[C@H]2c3cc4c(cc3CN3CCC(=C[C@@H]1O)[C@H]23)OCO4" )
> 80 mg/kg
